Biological target: T1, human CD3 protein (human, UniProt P07766 23-126; P04234 22-105)
T1 construct: ELISA coating protein; also called Human CD3D & CD3E Heterodimer Protein
T1 sequence (P07766 23-126 limits assumed, chain 1 of 2): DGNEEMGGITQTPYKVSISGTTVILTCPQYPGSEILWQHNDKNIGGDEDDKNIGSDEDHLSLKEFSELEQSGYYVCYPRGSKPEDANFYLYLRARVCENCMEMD
T1 sequence (P04234 22-105 limits assumed, chain 2 of 2): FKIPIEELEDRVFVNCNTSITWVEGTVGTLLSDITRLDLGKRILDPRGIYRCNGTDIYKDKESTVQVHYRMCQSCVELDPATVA
Test: ELISA, plate-coated CD3;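 also: binding to plate-immobilized human CD3 protein, bound antibody detected with peroxidase-labelled anti-human IgG and TMB, read as absorbance at 450 nm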
Listed below: log10 EC50 values for each entry.
A value of 2 here means EC50 of 100 in µg/mL, since values are log10.

| binder | measurement |
| --- | --- |
| Hu192A7B9-5 (antibody, V domains shown, humanized mAb) VH: EVQLQESGPGLVKPSETLSLTCTVSGFSISSYNVHWVRQPPGKGLEWMGRMRYNGDTSYNSALKSRLTISRDTSKNQVSLKLSSVTAADTAVYYCTRGPRGGYYSALFDYWGQGTMVTVSS VL: DIQMTQSPSSLSASVGDRVTITCKASQNINRYLNWYQQKPGKAPKLLIYIANSLQTGVPSRFSGSGSGTDFTLTISSLQPEDFATYYCLQHNSWYTFGQGTKLEIK | -2.26 |
| Hu192A7B9-13 (antibody, V domains shown, humanized mAb) VH: EVQLQESGPGLVKPSETLSLTCTVSGGSISSYNVHWIRQPPGKGLEWIGRMRYNGDTSYNSALKSRVTISVDTSKNQFSLKLSSVTAADTAVYYCARGPRGGYYSALFDYWGQGTMVTVSS VL: DIQMTQSPSSLSASVGDRVTITCKASQNINRYLNWYQQKPGKAPKLLISIANSLQTGIPSRFSGSGSGTDFTLTISSLQPEDFATYYCLQHNSWYTFGQGTKLEIK | -1.84 |

For reference, reported log10 EC50 for Hu192A7B9-3 (antibody, V domains shown, humanized mAb) VH: EVQLQESGPGLVKPSETLSLTCTVSGGSISSYNVHWVRQPPGKGLEWMGRMRYNGDTSYNSALKSRLTISRDTSKNQFSLKLSSVTAADTAVYYCARGPRGGYYSALFDYWGQGTMVTVSS VL: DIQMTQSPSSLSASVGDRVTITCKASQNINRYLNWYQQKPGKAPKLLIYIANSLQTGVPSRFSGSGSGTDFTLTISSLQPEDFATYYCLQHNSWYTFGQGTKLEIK stands at -1.06

For reference, reported log10 EC50 for Hu155A9B1-6 (antibody, V domains shown, humanized mAb) VH: EVQLQESGPGLVKPSETLSLTCTVSGFSLTSYNVHWVRQPPGKGLEWMGRVRYNGDTSYNSALKSRLTISRDTSKNQASLKLSSVTAADTAVYYCTRGPYGGSSEPLFDYWGQGTMVTVSS VL: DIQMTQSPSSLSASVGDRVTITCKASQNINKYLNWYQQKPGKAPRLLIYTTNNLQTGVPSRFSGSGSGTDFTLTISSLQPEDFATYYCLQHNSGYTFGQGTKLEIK stands at -2.38

For reference, reported log10 EC50 for Hu153A6B1-1 (antibody, V domains shown, humanized mAb) VH: EVQLQESGPGLVKPSETLSLTCTVSGGSISSYNIHWIRQPPGKGLEWIGRIRYNGDTSYNSALKSRVTISVDTSKNQFSLKLSSVTAADTAVYYCARGPYGGSREPLFDYWGQGTMVTVSS VL: DIQMTQSPSSLSASVGDRVTITCKTSQNINKYLNWYQQKPGKAPKLLIYTTNNLQTGVPSRFSGSGSGTDFTLTISSLQPEDFATYYCLQHGSGYTFGQGTKLEIK stands at -1.79
